- target.desc: GDP-loaded K-Ras (1-169) G12D, C51S, C80L, C118S (Homo sapiens, UniProt P01116, C118S/C51S/C80L/G12D)
- Construct: GDP-loaded K-Ras (1-169) G12D, C51S, C80L, C118S
- assay.procedure: K-Ras G12D(GDP) cross-linking assay (conjugate formation, TOF mass spectrometry)
- Type: binding
- assay.setup: Table 4; percent covalently modified K-Ras by MS; room temperature; typical compound conc. 2, 10, 25 μM, endpoints 1 and 24 h
test.readout: G12D x-linking (%)

Give G12D x-linking (%) for Cc1cccc2cccc(N3CCc4c(nc(OC[C@@H]5CCCN5C)nc4NCCNC(=O)NCCCl)C3)c12 [Example 36]
+ (0 < x ≤ 20)

Give G12D x-linking (%) for Cc1cccc2cccc(N3CCc4c(nc(OC[C@@H]5CCCN5C)nc4N4CCN(C5=NCCO5)CC4)C3)c12 [Example 39]
0

Give G12D x-linking (%) for O=C(C1CCN(c2ncnc3c(F)c(-c4ccccc4F)c(Cl)cc23)CC1)C(F)(F)F [Example 18]
0

Give G12D x-linking (%) for Cc1cccc2cccc(N3CCc4c(nc(OC[C@@H]5CCCN5C)nc4N4CCC(N=C=NCc5ccc(Cl)cc5)CC4)C3)c12 [Example 49]
+ (0 < x ≤ 20)

New cases:
Give G12D x-linking (%) for CN(CCN=C=NCc1ccccc1)c1ncnc2c(F)c(-c3ccccc3F)c(Cl)cc12 [Example 8]
+ (0 < x ≤ 20)

Give G12D x-linking (%) for CN(CCN=C=Nc1ccccc1)c1ncnc2c(F)c(-c3ccccc3F)c(Cl)cc12 [Example 7]
+ (0 < x ≤ 20)

---

- target.desc: GDP-loaded K-Ras (1-169) C51S, C80L, C118S (Homo sapiens, UniProt P01116, C118S/C51S/C80L)
- Construct: GDP-loaded K-Ras (1-169) C51S, C80L, C118S
- assay.procedure: K-Ras WT (GDP) cross-linking assay (conjugate formation, TOF mass spectrometry)
- Assay type: binding
- Design: key: 0: No observed x-linking; +: 0 < x ≤ 20; ++: 20 < x ≤ 40; +++: 40 < x ≤ 100
- assay.setup: Table 5; percent covalently modified K-Ras by MS; room temperature; typical compound conc. 2, 10, 25 μM, endpoints 1 and 24 h
test.readout: WT x-linking (%)

Give WT x-linking (%) for Cc1ccnc(C(C)C)c1-n1c(=O)nc(N2C[C@@H](C)N(C(=O)[C@@H]3CN3)C[C@@H]2C)c2cc(F)c(-c3c(O)cccc3F)nc21
0

Give WT x-linking (%) for Cc1ccnc(C(C)C)c1-n1c(=O)nc(N2CCN(C(=O)[C@H]3CN3)C[C@@H]2C)c2cc(F)c(-c3c(O)cccc3F)nc21
+ (0 < x ≤ 20)

Give WT x-linking (%) for CO[C@H]1CCC[C@H]1N=C=NC1CCN(c2nc(OC[C@@H]3CCCN3C)nc3c2CCN(c2cccc4cccc(C)c24)C3)CC1 (single isomer, unassigned)
+ (0 < x ≤ 20)

Give WT x-linking (%) for O=C([C@H]1CN1)N1CCN2c3ncnc4cc(-c5c(O)cccc5F)c(Cl)c(c34)OC[C@@H]2C1
0

Let us move to another entry and its WT x-linking (%).
Give WT x-linking (%) for COC(=O)[C@@H]1CN1C(=O)N1CCN(c2nc(OC[C@@H]3CCCN3C)nc3c2CCN(c2cccc4cccc(C)c24)C3)C[C@@H]1CC#N
+ (0 < x ≤ 20)

---

- target.desc: K-Ras G12S (Homo sapiens, UniProt P01116, G12S)
- assay.procedure: K-Ras G12S cross-linking assay (comparable procedure, conjugate formation, TOF mass spectrometry)
- Assay type: binding
- assay.setup: Table 4, percent covalently modified K-Ras by MS
test.readout: G12S x-linking (%)

Give G12S x-linking (%) for Cc1ccnc(C(C)C)c1-n1c(=O)nc(N(C)CCCN=C=NCc2ccccc2)c2cc(F)c(-c3ccccc3F)nc21
++ (10 < x ≤ 100)

Give G12S x-linking (%) for O=C(NCCCl)NC1CCN(c2ncnc3c(F)c(-c4ccccc4F)c(Cl)cc23)CC1
+ (0 < x ≤ 10)

Give G12S x-linking (%) for Fc1ccccc1-c1c(Cl)cc2c(N3CCN(C4=NCCO4)CC3)ncnc2c1F
+ (0 < x ≤ 10)

Give G12S x-linking (%) for Cc1cccc2cccc(N3CCc4c(nc(OC[C@@H]5CCCN5C)nc4N4CCN(C5=NCCO5)CC4)C3)c12
0

Give G12S x-linking (%) for CN(CCN=C=Nc1ccccc1)c1ncnc2c(F)c(-c3ccccc3F)c(Cl)cc12
+ (0 < x ≤ 10)

Give G12S x-linking (%) for CN=C=NC1CCN(c2nc(OC[C@@H]3CCCN3C)nc3c2CCN(c2cccc4cccc(C)c24)C3)CC1
++ (10 < x ≤ 100)

Let us move to another entry and its G12S x-linking (%).
Give G12S x-linking (%) for Cc1cccc2cccc(N3CCc4c(nc(OC[C@@H]5CCCN5C)nc4N(C)CCCN=C=NCc4ccc(Cl)cc4)C3)c12
+ (0 < x ≤ 10)

---

- target.desc: GDP-loaded K-Ras (1-169) C51S, C80L, C118S (Homo sapiens, UniProt P01116, C118S/C51S/C80L)
- Construct: GDP-loaded K-Ras (1-169) C51S, C80L, C118S
- assay.procedure: K-Ras WT (GDP) cross-linking assay (conjugate formation, TOF mass spectrometry)
- Format: binding
- assay.setup: Table 5; percent covalently modified K-Ras by MS; room temperature; typical compound conc. 2, 10, 25 μM, endpoints 1 and 24 h
- Description: Protocol: K-Ras G12D(GDP) Cross-Linking Assay […] GDP-loaded K-Ras (1-169) G12D, C51S, C80L, C118S and GDP-loaded K-Ras (1-169) C51S, C80L, C118S were adjusted to 50 μM in K-Ras assay buffer (12.5 mM HEPES, 75 mM NaCl and 1 mM MgCl2 at pH 7.4). […] At each time point, the reactions were analyzed immediately or quenched with 5 μL of a 5% formic acid solution and kept at 4° C. until analysis. […]
test.readout: WT x-linking (%)

Take a look at these entries with their results.
Give WT x-linking (%) for COCCN=C=NCC1CCN(c2nc(=O)n(-c3c(C)ccnc3C(C)C)c3nc(-c4ccccc4F)c(F)cc23)CC1
++ (20 < x ≤ 100)

Give WT x-linking (%) for CO[C@H]1CCCC[C@H]1N=C=NC1CCN(c2nc(OC[C@@H]3CCCN3C)nc3c2CCN(c2cccc4cccc(C)c24)C3)CC1
+ (0 < x ≤ 20)

Give WT x-linking (%) for Cc1ccnc(C(C)C)c1-n1c(=O)nc(N2[C@@H](C)CN(C(=O)[C@H]3CN3)C[C@@H]2C)c2cc(F)c(-c3c(O)cccc3F)nc21
+ (0 < x ≤ 20)

Give WT x-linking (%) for COc1ccccc1CN=C=NC1CCN(c2nc(OC[C@@H]3CCCN3C)nc3c2CCN(c2cccc4cccc(C)c24)C3)CC1
+ (0 < x ≤ 20)

New cases:
Give WT x-linking (%) for Cc1cccc2cccc(N3CCc4c(nc(OC[C@@H]5CCCN5C)nc4N4CC[C@@H](NC(=O)[C@H]5CN5)[C@@H](CC#N)C4)C3)c12
+ (0 < x ≤ 20)

Give WT x-linking (%) for Cc1ccnc(C(C)C)c1-n1c(=O)nc(N2[C@H](C)CN(C(=O)[C@@H]3CN3)C[C@H]2C)c2cc(F)c(-c3c(O)cccc3F)nc21
+ (0 < x ≤ 20)

Give WT x-linking (%) for Cc1cccc2cccc(N3CCc4c(nc(OC[C@@H]5CCCN5C)nc4N4CCC(N=C=NCCN(C)c5ccncn5)CC4)C3)c12
++ (20 < x ≤ 100)

Give WT x-linking (%) for Cc1cccc2cccc(N3CCc4c(nc(OC[C@@H]5CCCN5C)nc4N4CCC(N=C=NCCCN5CCOCC5)CC4)C3)c12
++ (20 < x ≤ 100)

Give WT x-linking (%) for COc1ccccc1CN=C=N[C@H]1C[C@H](Nc2nc(OC[C@@H]3CCCN3C)nc3c2CCN(c2cccc4cccc(C)c24)C3)C1
+ (0 < x ≤ 20)

Give WT x-linking (%) for COc1ccccc1CN=C=N[C@@H]1CCN(c2nc(OC[C@@H]3CCCN3C)nc3c2CCN(c2cccc4cccc(C)c24)C3)C[C@@H]1CC#N
+ (0 < x ≤ 20)

Give WT x-linking (%) for COCCN=C=N[C@@H]1CCN(c2nc(OC[C@@H]3CCCN3C)nc3c2CCN(c2cccc4cccc(C)c24)C3)C[C@@H]1CC#N
+ (0 < x ≤ 20)

Give WT x-linking (%) for CO[C@@H]1CCCC[C@@H]1N=C=NC1CCN(c2nc(OC[C@@H]3CCCN3C)nc3c2CCN(c2cccc4cccc(C)c24)C3)CC1
+ (0 < x ≤ 20)

Give WT x-linking (%) for Cc1cccc2cccc(N3CCc4c(nc(OC[C@@H]5CCCN5C)nc4N4CCN(C(=O)[C@@H]5CN5)[C@@H](CC#N)C4)C3)c12
+ (0 < x ≤ 20)
